measured on: Human acid ceramidase (hACR) (Homo sapiens, UniProt Q13510)
Construct: lysates of cells overexpressing acid ceramidase
Sequence (Q13510 22-395): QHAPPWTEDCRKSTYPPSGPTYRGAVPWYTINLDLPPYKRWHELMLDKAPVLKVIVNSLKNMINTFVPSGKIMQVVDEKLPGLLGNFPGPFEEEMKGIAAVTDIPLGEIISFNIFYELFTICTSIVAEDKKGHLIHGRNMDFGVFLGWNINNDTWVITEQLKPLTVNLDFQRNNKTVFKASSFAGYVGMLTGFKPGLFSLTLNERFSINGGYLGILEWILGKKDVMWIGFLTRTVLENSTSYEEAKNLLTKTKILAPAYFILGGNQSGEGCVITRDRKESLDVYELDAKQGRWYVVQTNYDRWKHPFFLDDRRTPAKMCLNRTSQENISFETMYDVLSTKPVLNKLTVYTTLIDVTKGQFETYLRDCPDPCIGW
measurement protocol: Acid ceramidase biochemical fluorescent assay (cell lysates overexpressing acid ceramidase, substrate Rbm14-12)
measurement parameters: 10 μg lysate protein, 1 hr preincubation at RT, pH 4.5, Rbm14-12 6.3 μM
pIC50: −log10 of the molar value.
assay endpoint: pIC50

[Q] Enter pIC50 (test system Human acid ceramidase (hACR) (Homo sapiens, UniProt Q13510)) for "Cn1c(=O)oc2cc(N3CCN(C(=O)NCCc4ccccc4)C(C)(C)C3)ccc21"
[A] 6.00 to 6.70

[Q] Specify the recorded pIC50 for Cn1c(=O)oc2cc(C3CCN(C(=O)NCCC4CC4)C(C)(C)C3)ccc21 (stereo not drawn) , system: Human acid ceramidase (hACR) (Homo sapiens, UniProt Q13510).
[A] 6.00 to 6.70

[Q] Give measured pIC50 for "Cn1c(=O)oc2cc(C3=CCCN(C(=O)NCCCCc4ccccc4)C3)ccc21" (Human acid ceramidase (hACR) (Homo sapiens, UniProt Q13510)).
[A] 6.00 to 6.70

[Q] Enter pIC50 (test system Human acid ceramidase (hACR) (Homo sapiens, UniProt Q13510)) for CCCCCNC(=O)N1CCCC(c2ccc3c(c2)oc(=O)n3C)C1 (stereo not drawn)
[A] < 6.00

[Q] Please report the measured pIC50 for CC1CN(c2ccc3c(c2)oc(=O)n3C)CC(C)N1C(=O)NCCCCc1ccccc1 (stereo not drawn) tested on Human acid ceramidase (hACR) (Homo sapiens, UniProt Q13510).
[A] > 6.70

[Q] Would you please give the reported pIC50 of Cn1c(=O)oc2cc(C3CCN(C(=O)NCCc4ccccc4)C(C)(C)C3)ccc21 (stereo not drawn) with Human acid ceramidase (hACR) (Homo sapiens, UniProt Q13510)?
[A] > 6.70

[Q] Give pIC50 only, for "Cn1c(=O)oc2cccc(C3CCN(C(=O)NCCCCc4ccccc4)CC3)c21" , using Human acid ceramidase (hACR) (Homo sapiens, UniProt Q13510) data.
[A] < 6.00

[Q] For Human acid ceramidase (hACR) (Homo sapiens, UniProt Q13510), give pIC50 of the listed compound: "CN(C)CCn1c(=O)oc2cc(N3CCN(C(=O)NCCCCc4ccccc4)CC3)ccc21"
[A] < 6.00

[Q] Report the value of pIC50 obtained on Human acid ceramidase (hACR) (Homo sapiens, UniProt Q13510) for "Cn1c(=O)oc2cc(N3CC(C)(C)N(C(=O)NCCCCc4ccccc4)CC3=O)ccc21" .
[A] > 6.70

[Q] Name the recorded pIC50 of CC(C)CNC(=O)N1CCC(c2ccc3c(c2)oc(=O)n3C)C[C@H]1C (mixture of isomers) , assay system Human acid ceramidase (hACR) (Homo sapiens, UniProt Q13510).
[A] < 6.00

[Q] Lab note: Human acid ceramidase (hACR) (Homo sapiens, UniProt Q13510) assay, enter pIC50 for O=C(NCCCCc1ccccc1)N1CCCCC1c1ccc2[nH]c(=O)oc2c1 (stereo not drawn) here
[A] < 6.00
